Each entry below lists one item and its recorded pKi value.
target: Protein kinase C alpha type (Homo sapiens, UniProt P17252); assay: Displacement of [3H]PDBu from full length recombinant human PKCalpha expressed in baculovirus expression system after 5 mins by scintillation counting
pKi: −log10 of the molar value.
property_measured: pKi

>  <molecule>
Cn1cc(/C=C2\CC(CO)(COC(=O)C(C)(C)C)OC2=O)c2cc([N+](=O)[O-])ccc21 (centres undefined)

>  <property_measured>
pKi

>  <op>
<

>  <test_value>
4.52

$$$$
>  <molecule>
CC(C)(C)C(=O)OCC1(CO)C/C(=C\c2coc3ccccc23)C(=O)O1 (centres undefined)

>  <property_measured>
pKi

>  <op>
=

>  <test_value>
6.94

$$$$
>  <molecule>
CC(C)(C)C(=O)OCC1(CO)C/C(=C\c2ccccn2)C(=O)O1 (centres undefined)

>  <property_measured>
pKi

>  <op>
=

>  <test_value>
5.44

$$$$
>  <molecule>
CCCC(CCC)C(=O)OCC1(CO)C/C(=C\c2cn(C)c3ccccc23)C(=O)O1 (centres undefined)

>  <property_measured>
pKi

>  <op>
=

>  <test_value>
7.50

$$$$
>  <molecule>
CC(C)(C)C(=O)OCC1(CO)C/C(=C/c2coc3ccccc23)C(=O)O1 (centres undefined)

>  <property_measured>
pKi

>  <op>
=

>  <test_value>
7.20

$$$$
>  <molecule>
CN(C)c1ccc(C(=O)OCC2(CO)C/C(=C\c3cn(C)c4ccccc34)C(=O)O2)cc1 (centres undefined)

>  <property_measured>
pKi

>  <op>
=

>  <test_value>
6.73

$$$$
>  <molecule>
CC(C)CC(CC(C)C)C(=O)OCC1(CO)C/C(=C\c2cn(C)c3ccccc23)C(=O)O1 (centres undefined)

>  <property_measured>
pKi

>  <op>
=

>  <test_value>
7.41

$$$$
>  <molecule>
COc1ccc(C(=O)OCC2(CO)C/C(=C\c3ccccn3)C(=O)O2)cc1 (centres undefined)

>  <property_measured>
pKi

>  <op>
=

>  <test_value>
5.93

$$$$
>  <molecule>
Cn1cc(/C=C2\CC(CO)(COC(=O)C(C)(C)C)OC2=O)c2cc(Cl)ccc21 (centres undefined)

>  <property_measured>
pKi

>  <op>
=

>  <test_value>
7.37

$$$$

---

Each entry below lists one item and its recorded Ki value.
molecular target: UniProtKB Q02156; assay: Displacement of [3H]PDBu from full length recombinant human PKCepsilon expressed in baculovirus expression system after 5 mins by scintillation counting
Sequence (Q02156 whole entry): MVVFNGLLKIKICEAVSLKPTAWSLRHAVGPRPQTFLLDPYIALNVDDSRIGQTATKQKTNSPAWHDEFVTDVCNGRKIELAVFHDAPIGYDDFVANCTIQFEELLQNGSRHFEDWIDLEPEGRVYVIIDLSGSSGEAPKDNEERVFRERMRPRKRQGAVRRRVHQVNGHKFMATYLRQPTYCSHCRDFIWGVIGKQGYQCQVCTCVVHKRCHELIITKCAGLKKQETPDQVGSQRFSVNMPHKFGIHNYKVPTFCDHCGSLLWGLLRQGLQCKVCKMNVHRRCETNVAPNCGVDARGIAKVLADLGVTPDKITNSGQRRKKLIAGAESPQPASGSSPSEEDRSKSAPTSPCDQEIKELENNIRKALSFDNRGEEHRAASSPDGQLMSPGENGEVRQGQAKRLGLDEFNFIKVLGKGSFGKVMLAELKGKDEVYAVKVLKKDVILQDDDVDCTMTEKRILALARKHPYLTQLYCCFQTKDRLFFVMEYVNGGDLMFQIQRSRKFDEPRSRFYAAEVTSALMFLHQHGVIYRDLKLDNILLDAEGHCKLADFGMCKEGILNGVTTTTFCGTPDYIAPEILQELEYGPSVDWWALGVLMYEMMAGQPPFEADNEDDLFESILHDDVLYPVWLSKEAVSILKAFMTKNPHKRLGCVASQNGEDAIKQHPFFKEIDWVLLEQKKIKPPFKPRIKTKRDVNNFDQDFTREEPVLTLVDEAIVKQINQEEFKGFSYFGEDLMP
property_measured: Ki

>  <compound>
Cn1cc(/C=C2\CC(CO)(COC(=O)C(C)(C)C)OC2=O)c2cc(Cl)ccc21 (stereo not drawn)

>  <test_value>
39.3 nM

$$$$
>  <compound>
CC(C)Cn1cc(/C=C2\CC(CO)(COC(=O)C(C)(C)C)OC2=O)c2ccccc21 (stereo not drawn)

>  <test_value>
19.4 nM

$$$$
>  <compound>
CCCCCCC(=O)OCC1(CO)C/C(=C\c2cn(C)c3ccccc23)C(=O)O1 (stereo not drawn)

>  <test_value>
122 nM

$$$$
>  <compound>
Cn1cc(/C=C2\CC(CO)(COC(=O)/C=C/c3ccccc3)OC2=O)c2ccccc21 (stereo not drawn)

>  <test_value>
672 nM

$$$$
>  <compound>
CC(C)(C)C(=O)OCC1(CO)C/C(=C\c2ccc(Cl)cc2)C(=O)O1 (stereo not drawn)

>  <test_value>
2.57 nM

$$$$
>  <compound>
CN(C)c1ccc(/C=C2\CC(CO)(COC(=O)C(C)(C)C)OC2=O)cc1 (stereo not drawn)

>  <test_value>
7.87 nM

$$$$
>  <compound>
CN(C)c1ccc(C(=O)OCC2(CO)C/C(=C\c3cn(C)c4ccccc34)C(=O)O2)cc1 (stereo not drawn)

>  <test_value>
220 nM

$$$$
>  <compound>
CN(C)c1ccc(C(=O)OCC2(CO)C/C(=C\c3ccc(Cl)cc3)C(=O)O2)cc1 (stereo not drawn)

>  <test_value>
9.5 nM

$$$$
>  <compound>
Cn1cc(/C=C2\CC(CO)(COC(=O)C(C)(C)C)OC2=O)c2ccccc21 (stereo not drawn)

>  <test_value>
78.9 nM

$$$$
>  <compound>
COc1ccc(/C=C2\CC(CO)(COC(=O)c3ccc(Cl)cc3)OC2=O)cc1 (stereo not drawn)

>  <test_value>
6.8 nM

$$$$
>  <compound>
Cn1cc(/C=C2/CC(CO)(COC(=O)C(C)(C)C)OC2=O)c2cc([N+](=O)[O-])ccc21 (stereo not drawn)

>  <test_value>
> 30000 nM

$$$$
>  <compound>
Cn1cc(/C=C2\CC(CO)(COC(=O)C(C)(C)C)OC2=O)c2cc([N+](=O)[O-])ccc21 (stereo not drawn)

>  <test_value>
> 30000 nM

$$$$
>  <compound>
CCCCn1cc(/C=C2\CC(CO)(COC(=O)C(C)(C)C)OC2=O)c2ccccc21 (stereo not drawn)

>  <test_value>
19.2 nM

$$$$
>  <compound>
CC(C)(C)C(=O)OCC1(CO)C/C(=C\c2cn(CC3CC3)c3ccccc23)C(=O)O1 (stereo not drawn)

>  <test_value>
60.6 nM

$$$$
>  <compound>
COc1ccc(C(=O)OCC2(CO)C/C(=C\c3ccccn3)C(=O)O2)cc1 (stereo not drawn)

>  <test_value>
199 nM

$$$$
>  <compound>
CC(C)(C)C(=O)OCC1(CO)C/C(=C\c2coc3ccccc23)C(=O)O1 (stereo not drawn)

>  <test_value>
35.3 nM

$$$$
>  <compound>
CC(C)(C)C(=O)OCC1(CO)C/C(=C/c2coc3ccccc23)C(=O)O1 (stereo not drawn)

>  <test_value>
73.3 nM

$$$$
>  <compound>
COc1ccc(C(=O)OCC2(CO)C/C(=C\c3ccc(N(C)C)cc3)C(=O)O2)cc1 (stereo not drawn)

>  <test_value>
18.2 nM

$$$$
>  <compound>
COc1ccc2c(c1)c(/C=C1\CC(CO)(COC(=O)C(C)(C)C)OC1=O)cn2C (stereo not drawn)

>  <test_value>
208 nM

$$$$
>  <compound>
COc1ccc(/C=C2\CC(CO)(COC(=O)c3ccc(N(C)C)cc3)OC2=O)cc1 (stereo not drawn)

>  <test_value>
18.3 nM

$$$$
>  <compound>
Cn1cc(/C=C2/CC(CO)(COC(=O)C(C)(C)C)OC2=O)c2cc(Cl)ccc21 (stereo not drawn)

>  <test_value>
104 nM

$$$$
>  <compound>
COc1ccc(C(=O)OCC2(CO)C/C(=C\c3cn(C)c4ccccc34)C(=O)O2)cc1 (stereo not drawn)

>  <test_value>
380 nM

$$$$
>  <compound>
O=C1OC(CO)(COC(=O)c2ccc(Cl)cc2)C/C1=C\c1ccccn1 (stereo not drawn)

>  <test_value>
92.3 nM

$$$$
>  <compound>
Cn1cc(/C=C/C(=O)OCC2(CO)C/C(=C\c3cn(C)c4ccccc34)C(=O)O2)c2ccccc21 (stereo not drawn)

>  <test_value>
780 nM

$$$$
>  <compound>
CN(C)c1ccc(/C=C2\CC(CO)(COC(=O)c3ccc(Cl)cc3)OC2=O)cc1 (stereo not drawn)

>  <test_value>
6.39 nM

$$$$
>  <compound>
CC(C)CC(CC(C)C)C(=O)OCC1(CO)C/C(=C\c2cn(C)c3ccccc23)C(=O)O1 (stereo not drawn)

>  <test_value>
41.5 nM

$$$$
>  <compound>
Cn1cc(/C=C2\CC(CO)(COC(=O)C3CCCCC3)OC2=O)c2ccccc21 (stereo not drawn)

>  <test_value>
98.2 nM

$$$$
>  <compound>
CC(C)(C)C(=O)OCC1(CO)C/C(=C/c2csc3ccccc23)C(=O)O1 (stereo not drawn)

>  <test_value>
12.5 nM

$$$$
